system-under-test: Death-associated protein kinase 1 (Homo sapiens)
condition-label: at 0.1 µM
readout-label: inhibition (%)
// units = %; emit number, no label

Ask | GET /values?readout=inhibition&system=Death-associated protein kinase 1 (Homo sapiens)&item= N#Cc1ccc2c(-c3ccnc(NC4CC4)n3)c(-c3ccc(F)cc3)nn2c1
Reply | 1.33

Ask | inhibition of FC(F)(F)CNc1nccc(-c2cnn3ncccc23)n1 on Death-associated protein kinase 1 (Homo sapiens)?
Reply | 3.66

Ask | State its inhibition on Death-associated protein kinase 1 (Homo sapiens): Fc1cccc(COc2ccc(Nc3ncncc3C#Cc3ccccc3)cc2Cl)c1
Reply | 5.08

Ask | // fetch Death-associated protein kinase 1 (Homo sapiens) inhibition for O=C(Nc1n[nH]c2nnc(-c3cccnc3)cc12)C1CC1
Reply | -1.32

Ask | Value wanted: inhibition (Death-associated protein kinase 1 (Homo sapiens)) of entry CS(=O)(=O)Nc1ccc(-c2ccc3c(NC(=O)C4CC4)n[nH]c3c2)cc1
Reply | 2.51

Ask | Write down the reported inhibition of NS(=O)(=O)c1ccc(N/N=C2\C(=O)Nc3ccc(C(=O)NCc4ccncc4)cc32)cc1 , test system: Death-associated protein kinase 1 (Homo sapiens).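 Also: reported figure is the mean inhibition of DAPK1.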
Reply | 4.72
